# reported pIC50; entries follow
Target: HDAC1 (Homo sapiens)
Sequence (Q13547 whole entry, species assumed): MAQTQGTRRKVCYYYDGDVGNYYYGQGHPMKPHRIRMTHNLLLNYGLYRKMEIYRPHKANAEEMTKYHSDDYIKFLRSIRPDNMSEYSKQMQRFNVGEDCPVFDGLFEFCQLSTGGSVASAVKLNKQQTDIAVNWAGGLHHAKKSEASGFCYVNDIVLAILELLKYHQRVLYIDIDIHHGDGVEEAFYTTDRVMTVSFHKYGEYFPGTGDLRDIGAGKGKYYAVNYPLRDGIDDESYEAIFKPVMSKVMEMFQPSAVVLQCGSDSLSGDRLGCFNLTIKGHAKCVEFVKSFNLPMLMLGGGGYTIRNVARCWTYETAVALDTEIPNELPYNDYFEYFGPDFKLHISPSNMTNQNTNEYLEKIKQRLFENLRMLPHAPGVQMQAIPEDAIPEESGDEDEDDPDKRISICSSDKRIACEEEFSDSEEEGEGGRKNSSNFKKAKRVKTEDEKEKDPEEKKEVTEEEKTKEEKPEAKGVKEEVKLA
Assay: Measurement of biochemical activities of HDAC (fluorescently-labeled acetylated lysine substrate)
Settings: read-out: IC50 HDAC1
pIC50: −log10 of the molar value.

Some compounds with recorded pIC50:
[[record]]
compound = "C/C=C1\\NC(=O)C2N=C(CNC(=O)C[C@@H](/C=C/CCSC(=O)CCCCCCC)OC(=O)[C@H](C(C)C)NC1=O)O[C@@H]2C (stereo partly drawn) [Compound 2-2]"
result = "> 5.00"

[[record]]
compound = "CCCCCCCC(=O)SCC/C=C/[C@@H]1CC(=O)NCc2nc(cs2)C(=O)N[C@H](CC)C(=O)N[C@@H](C(C)C)C(=O)O1 [Compound 3-2]"
result = "> 5.00"


// C/C=C1\NC(=O)c2csc(n2)[C@H](Cc2ccccc2)NC(=O)C[C@@H](/C=C/CCSC(=O)CCCCCCC)OC(=O)[C@H](C(C)C)NC1=O [Compound 4-3] : pIC50 value = > 5.00

// C/C=C1\NC(=O)c2csc(n2)CNC(=O)C[C@@H](/C=C/CCSC(=O)CCCCCCCCCCCC)OC(=O)[C@H](C(C)C)NC1=O [Compound 6-3] : pIC50 value = > 5.00

// C/C=C1\NC(=O)c2csc(n2)CNC(=O)C[C@@H](/C=C/CCSC(=O)CCCCCCC)OC(=O)[C@H](CC)NC1=O [Compound 1-2] : pIC50 value = > 6.72

// C/C=C1\NC(=O)c2csc(n2)CNC(=O)C[C@@H](/C=C/CCSC(=O)CCCCCCC)OC(=O)[C@H](Cc2ccc(O)cc2)NC1=O [Compound 1-8] : pIC50 value = > 6.99

// C/C=C1\NC(=O)C2C=NC(=N2)CNC(=O)C[C@@H](/C=C/CCSC(=O)CCCCCCC)OC(=O)[C@H](C(C)C)NC1=O (stereo partly drawn) [Compound 2-4] : pIC50 value = > 5.00

// C/C=C1\NC(=O)c2csc(n2)CNC(=O)C[C@@H](/C=C/CCSC(=O)CCCCCCC)OC(=O)[C@H](CCSC)NC1=O [Compound 1-10] : pIC50 value = > 7.00

// C/C=C1\NC(=O)c2csc(n2)CNC(=O)C[C@@H](/C=C/CCSC(=O)CCCCCCC)OC(=O)[C@H](CSCC)NC1=O [Compound 1-12] : pIC50 value = > 7.00

// C/C=C1\NC(=O)c2csc(n2)[C@H](Cc2ccc(O)cc2)NC(=O)C[C@@H](/C=C/CCSC(=O)CCCCCCC)OC(=O)[C@H](C(C)C)NC1=O [Compound 4-4] : pIC50 value = > 5.00

// CCCCCCCC(=O)SCC/C=C/[C@@H]1CC(=O)NCc2nc(cs2)C(=O)NCC(=O)N[C@@H](C(C)C)C(=O)O1 [Compound 3-3] : pIC50 value = > 5.00

// C/C=C1\NC(=O)c2csc(n2)CNC(=O)C[C@@H](/C=C/CCSC(=O)CCCCCCC)OC(=O)[C@H](C(C)(C)C)NC1=O [Compound 1-6] : pIC50 value = > 5.00
